src = patent US4975455A

Test system: L1210 line (mouse leukemic line)
Assay: Inhibition of growth of L1210 line (tritiated thymidine incorporation, 48 hours)
Format: cell-based
Conditions: L1210 cells, read-out: IC50 (50% growth inhibition)
pIC50: −log10 of the molar value.
Quick rule for you: pIC50 at 5 or higher means True, lower means False.

Molecule	Label
COC(=O)c1ccc(/C=C(\C)C2=Cc3ccccc3OC2)cc1 [Example 6]	False

Q) Hi team, for CCS(=O)(=O)c1ccc(/C=C(\C)C2=Cc3ccccc3OC2)cc1 [Example 16] , is the recorded pIC50 at or above 5?
A) True

Q) Hi team, for CCOC(=O)c1ccc(/C=C(\C)C2=Cc3ccccc3OC2)cc1 [Example 10] , is the recorded pIC50 at or above 5?
A) False

Q) Hi team, for COC(=O)c1ccc(/C=C(\C)C2=Cc3cc(Cl)cc(Cl)c3OC2)cc1 [Example 8] , is the recorded pIC50 at or above 5?
A) False

Q) Hi team, for CCS(=O)(=O)c1ccc(C=C(C)C2=Cc3cc(C)cc(C)c3OC2)cc1 [Example 18] , is the recorded pIC50 at or above 5?
A) True

Q) Hi team, for CCOC(=O)/C=C(C)/C=C/C=C(C)/C=C/c1c(C)cc(OC)c(C)c1C [Etretinate, etretinate] , is the recorded pIC50 at or above 5?
A) False

Q) Hi team, for CC(=Cc1ccccc1)C1=Cc2cc(Cl)cc(C)c2OC1 [Example 3] , is the recorded pIC50 at or above 5?
A) False

Q) Hi team, for CCNC(=O)c1ccc(/C=C(\C)C2=Cc3ccccc3OC2)cc1 [Example 13] , is the recorded pIC50 at or above 5?
A) True

Q) Hi team, for CC(=Cc1ccccc1)C1=Cc2ccccc2OC1 [Example 1, 3-(1-PHENYLPROPEN-2-YL)-2H-CHROMENE] , is the recorded pIC50 at or above 5?
A) True
